- Test system: Pseudomonas aeruginosa MDR 301 from Poland (V2)
- Test: MIC assay, CAMHB with alginate oligomer, no visible growth
- Format: cell-based
- Assay conditions: Pseudomonas aeruginosa, Table 1; V2 MDR 301 PA; OligoCF-5/20 +2% G; read-out: MIC
Form field: MIC (one value per entry).
Provide only the numeric value, understood in µg/mL.

Solved entries (count: 4):
* CC[C@H]1OC(=O)[C@H](C)[C@@H](O[C@H]2C[C@@](C)(OC)[C@@H](O)[C@H](C)O2)[C@H](C)[C@@H](O[C@@H]2O[C@H](C)C[C@H](N(C)C)[C@H]2O)[C@](C)(O)C[C@@H](C)CN(C)[C@H](C)[C@@H](O)[C@]1(C)O | 64
* C[C@H]1[C@H](NC(=O)/C(=N\OC(C)(C)C(=O)O)c2csc(N)n2)C(=O)N1S(=O)(=O)O | 16
* O=C(O)c1cn(C2CC2)c2cc(N3CCNCC3)c(F)cc2c1=O | 16
* CC(C)(O/N=C(\C(=O)N[C@@H]1C(=O)N2C(C(=O)[O-])=C(C[n+]3ccccc3)CS[C@H]12)c1csc(N)n1)C(=O)O | 16

Could you now look at the following compound, please?
Give the reported MIC for this compound. C[C@@H](O)[C@H]1C(=O)N2C(C(=O)O)=C(S[C@@H]3CN[C@H](C(=O)N(C)C)C3)[C@H](C)[C@H]12
64

The reported measurements were obtained from patent US9801901B2.
